- Tested on: L1210 leukemia ip in BDF1 mice, survival T/C
- measurement notes: NCI In Vivo Anticancer Drug Screen. Data for tumor model L1210 Leukemia (intraperitoneal) in B6D2F1 (BDF1) mice
- condition set: endpoint: mean survival time; dose: 25.0 mg/kg/injection; schedule: Q04DX003 (ip); vehicle: saline with Tween-80; higher = longer survival
Toxic doses and inconclusive results are not listed.
measured parameter: T/C

Some compounds with recorded T/C:
{"columns": ["compound", "observed"],
 "data": [
  ["COc1ccc2c[n+](C)c3c4cc(OC)c(OC)cc4ccc3c2c1", "105 % of control"],
  ["CC1(C)N=C(N)N=C(N)N1c1cccc(CCCCc2ccc(Cl)cc2Cl)c1", "98 % of control"],
  ["O=C1C=CC(=C(Br)Br)O1", "103 % of control"],
  ["Clc1nn2nnnc2c2ccccc12", "98 % of control"],
  ["OC1C2CCN(CC2)C1C(c1ccccc1)c1ccccc1 (centres undefined)", "95 % of control"],
  ["CCOC(=O)c1ccc(NC(=O)Nc2ccc(NC(C)=O)cc2)cc1", "88 % of control"],
  ["O=C(NC(c1ccccc1)c1ccccc1)c1ccccc1", "97 % of control"],
  ["CC1CCC(=C(c2ccccc2)c2ccccc2)C(C)N1C (centres undefined)", "107 % of control"]
]}

// next entry
Fill in the blank: the reported T/C of `c1ccc2c(c1)CCc1ccccc1C2NC1=NCCO1` is ____. 100 % of control

----------
Below is a list of entries, each paired with its recorded T/C value.
- Test system: L1210 leukemia ip in BDF1 mice, survival T/C
- measurement notes: NCI In Vivo Anticancer Drug Screen. Data for tumor model L1210 Leukemia (intraperitoneal) in B6D2F1 (BDF1) mice
- condition set: endpoint: mean survival time; dose: 100.0 mg/kg/injection; schedule: Q04DX002 (ip); vehicle: Klucel (hydroxypropylcellulose) (HPC); higher = longer survival
Toxic doses and inconclusive results are not listed.

Some compounds with recorded T/C:
{"columns": ["compound", "T/C"],
 "data": [
  ["CC(=Nc1cccc2ccccc12)c1c(O)cc(C)oc1=O", "98 % of control"],
  ["Cc1cnc(-n2cc(C)c(-c3ccccc3O)n2)nc1-c1ccccc1O", "96 % of control"],
  ["OC(c1ccc(Cl)cc1)c1nc2ccccc2[nH]1 (centres undefined)", "100 % of control"],
  ["OC1C2CC3CC(C2)CC1C3 (centres undefined)", "102 % of control"],
  ["Cc1cc(C)c(S(N)(=O)=O)c(C)c1", "107 % of control"]
]}

Fill in the blank: the reported T/C of `CCn1c(C)nc2cc(N=Cc3ccc(N(CCCl)CCCl)cc3F)ccc21` is ____. 95 % of control

Fill in the blank: the reported T/C of `O=C(NCc1ccc(Cl)cc1)NC1CCCCC1` is ____. 100 % of control

Fill in the blank: the reported T/C of `CO/N=C(/CSS(=O)(=O)O)c1ccccc1` is ____. 96 % of control

Fill in the blank: the reported T/C of CC1(C)C(=O)C2CCC1C2 (centres undefined) is ____. 90 % of control

----------
Below is a list of entries, each paired with its recorded T/C value.
- System: L1210 leukemia ip in BDF1 mice, survival T/C
- measurement notes: NCI In Vivo Anticancer Drug Screen. Data for tumor model L1210 Leukemia (intraperitoneal) in B6D2F1 (BDF1) mice
- condition set: endpoint: mean survival time; dose: 100.0 mg/kg/injection; schedule: Q04DX003 (ip); vehicle: saline; higher = longer survival
Inconclusive results and toxic doses are left out.

Some compounds with recorded T/C:
{"columns": ["compound", "T/C"],
 "data": [
  ["[O-][N+](=C1c2ccccc2-c2ccccc21)c1ccccc1", "94 % of control"],
  ["COC1=C(Nc2cccc(C)c2C)C(=O)C(OC)=C(Nc2cccc(C)c2C)C1=O", "98 % of control"],
  ["COC(=O)C(NC(=O)C(NC(=O)Cc1ccccc1)SCc1ccccc1)=C(C)C (centres undefined)", "95 % of control"],
  ["COc1cc(C(=O)Nc2ccc(N(C)C)cc2)cc(OC)c1OC", "100 % of control"],
  ["O=[N+]([O-])c1ccc(/C=N/c2nn[nH]n2)cc1 (tested in a mixture with another compound)", "98 % of control"]
]}

Fill in the blank: the reported T/C of `COc1ccc(-n2c(=S)[nH]c3ccccc3c2=O)cc1` is ____. 95 % of control

Fill in the blank: the reported T/C of `O=S(=O)(O)c1cc(Cl)cc(Cl)c1O` is ____. 113 % of control

Fill in the blank: the reported T/C of O=C(CN1CCCCC1Cl)c1ccccc1 (centres undefined) is ____. 100 % of control

Fill in the blank: the reported T/C of `FC(F)(F)c1ccc2c(c1)C1c3ccccc3C2c2ccccc21` is ____. 100 % of control

Fill in the blank: the reported T/C of `N=C(N)Cc1ccc(NC(=O)c2ccc(C(=O)Nc3ccc(CC(=N)N)cc3)cc2)cc1` is ____. 120 % of control

Fill in the blank: the reported T/C of `O=P(O)(CO)CO` is ____. 109 % of control

Fill in the blank: the reported T/C of `O=S(=O)(Oc1ccc(Cl)cc1)c1ccc(Cl)cc1` is ____. 103 % of control

Fill in the blank: the reported T/C of `NCc1ccccc1[N+](=O)[O-]` is ____. 104 % of control

Fill in the blank: the reported T/C of CCCC1(c2ccccc2)CC(=O)NC1=O (centres undefined) is ____. 103 % of control

----------
- Test system: L1210 leukemia ip in BDF1 mice, survival T/C
- measurement notes: NCI In Vivo Anticancer Drug Screen. Data for tumor model L1210 Leukemia (intraperitoneal) in B6D2F1 (BDF1) mice
- condition set: endpoint: mean survival time; dose: 100.0 mg/kg/injection; schedule: Q01DX001 (ip); vehicle: carboxymethylcellulose (CMC)
Inconclusive results and toxic doses are left out. Cut-off read from the data, not from the text of the source: active = T/C of 150% or more; inactive = T/C below 125%.
Response enum: True for active, False for inactive

These recorded examples may help you get a feel for the data.
{"columns": ["compound", "cat"],
 "data": [
  ["N#Cc1ccccc1-c1ccccc1C#N", "False"],
  ["OCn1nc(Cl)c2cc(Cl)ccc21", "False"],
  ["CC(Nc1nc(SCc2ccccc2)c2ncn(C3OC(CO)C(O)C3O)c2n1)C(=O)O (stereo unspecified)", "False"],
  ["O=C(O)c1cc(Br)sc1Br", "False"],
  ["CN1CCc2cc3c(cc2C(=O)Cc2ccc4c(c2C1)OCO4)OCO3", "False"],
  ["O=C(O)C1C2C=CC(C2)C1(C(=O)O)c1ccccc1 (stereo unspecified)", "False"]
]}

Kindly provide the recorded test outcome for the following compound: `COc1c(Br)cc(N=Cc2ccc(N(CCCl)CCCl)cc2C)cc1Br` False

Kindly provide the recorded test outcome for the following compound: `CCCCCCC(=O)N(CCCC)CCCC` False

Kindly provide the recorded test outcome for the following compound: `CCOC(=O)NC(NC(=O)OCC)C(NC(=O)OCC)NC(=O)OCC` False

----------
- System: L1210 leukemia ip in BDF1 mice, survival T/C
- measurement notes: NCI In Vivo Anticancer Drug Screen. Data for tumor model L1210 Leukemia (intraperitoneal) in B6D2F1 (BDF1) mice
- condition set: endpoint: mean survival time; dose: 50.0 mg/kg/injection; schedule: Q01DX009 (ip); vehicle: saline with Tween-80; higher = longer survival
Inconclusive results and toxic doses are left out.
measured parameter: T/C

{"columns": ["smiles input", "T/C"],
 "data": [
  ["C/[N+]([O-])=N\\Nc1c(Br)cc(Br)cc1Br", "105 % of control"],
  ["Cc1ccc(SC(=O)CC(=O)Sc2ccc(C)cc2)cc1", "91 % of control"],
  ["CCN(CC)c1ccc(NC(=O)NC(C)C)cc1", "101 % of control"],
  ["c1cnc2c(c1)CCCC2", "86 % of control"],
  ["COc1ccc(/C=N/NC(=O)C[n+]2ccccc2)cc1", "91 % of control"]
]}

// next entry
Fill in the blank: the reported T/C of `Cc1c(C)c(C)c(C(=O)O)c(C)c1C` is ____. 93 % of control

----------
Below is a list of entries, each paired with its recorded T/C value.
- Tested on: L1210 leukemia ip in BDF1 mice, survival T/C
- measurement notes: NCI In Vivo Anticancer Drug Screen. Data for tumor model L1210 Leukemia (intraperitoneal) in B6D2F1 (BDF1) mice
- condition set: endpoint: mean survival time; dose: 200.0 mg/kg/injection; schedule: Q01DX001 (ip); vehicle: saline; higher = longer survival
Toxic doses and inconclusive results are not listed.

Some compounds with recorded T/C:
{"columns": ["compound", "T/C"],
 "data": [
  ["Cc1cc2c(cc1C)N(C(=O)CCl)CCN2C(=O)CCl", "98 % of control"],
  ["NC(N)=NC(N)=NCCCc1ccccc1", "96 % of control"],
  ["CC1CC2=C(CCCO2)C(C)C1 (stereo not given)", "95 % of control"],
  ["ClCCOc1ccccc1", "101 % of control"]
]}

What is its T/C for L1210 leukemia ip in BDF1 mice, survival T/C? Entry: `CS(=O)(=O)OC12CC3CC(CC(C3)C1)C2` 98 % of control
